So I've got a bunch of molecules here, and I need their EC50 values.
System: L. donovani HU3 strain in mouse peritoneal macrophages
Test: Assay for proliferation of Leishmania parasites in mouse peritoneal macrophages
Type: cell-based, Leishmania donovani
Settings: Leishmania donovani, Peritoneal macrophage, read-out: L. donavani Macrophage EC50
One number for each entry, in µM.

// solved cases for EC50 follow
molecule=O=C(Nc1ccc(Cl)c(-c2nc3ncc(-c4ccc(F)cc4)cc3[nH]2)c1)N1CCCC1 target_system="L. donovani HU3 strain in mouse peritoneal macrophages" observed_value=2.47
molecule=O=C(Nc1ccc(Cl)c(-c2nc3ncncc3[nH]2)c1)c1ccco1 target_system="L. donovani HU3 strain in mouse peritoneal macrophages" observed_value=25.5
molecule=N#Cc1ccc(-c2cnc3nc(-c4cc(NC(=O)c5ccco5)ccc4Cl)[nH]c3c2)cc1 target_system="L. donovani HU3 strain in mouse peritoneal macrophages" observed_value=1.78
molecule=CC(=O)Nc1ccc(-c2cnc3nc(-c4cc(NC(=O)Nc5ccc(C(F)(F)F)cc5)ccc4F)oc3c2)cc1 target_system="L. donovani HU3 strain in mouse peritoneal macrophages" observed_value=3.12
molecule=COC(=O)Nc1ccc(-c2cnc3nc(-c4cc(NC(=O)c5ccco5)ccc4Cl)[nH]c3c2)cc1 target_system="L. donovani HU3 strain in mouse peritoneal macrophages" observed_value=0.284

Lab note: each molecule below needs its EC50 filled in.
1. CC(C)C(=O)Nc1ccc(-c2cnc3nc(-c4cc(NC(=O)c5ccco5)ccc4Cl)[nH]c3c2)cc1
2. COc1ccc(C(C)C(=O)Nc2ccc(Cl)c(-c3nc4ncc(C)cc4[nH]3)c2)cc1 (centres unmarked)
3. O=C(Nc1ccc(Cl)c(-c2nc3ncc(-c4ccc(OCC5CCOCC5)cc4)cc3[nH]2)c1)c1ccco1
4. CC(C)OC(=O)Nc1ccc(Cl)c(-c2nc3ncc(-c4ccccc4NC(=O)CN)cc3[nH]2)c1

(A)
[0.154, 23.1, 2.17, 9.8]

Lab note: each molecule below needs its EC50 filled in.
1. Cc1cnc2nc(-c3cc(NC(=O)N4CC[C@H](F)C4)ccc3Cl)[nH]c2c1
2. Cc1ccc(C(=O)Nc2ccc(Cl)c(-c3nc4ncc(C(F)(F)F)cc4[nH]3)c2)o1
3. O=C(Nc1ccc(Cl)c(-c2nc3ncc(C(F)(F)F)cc3[nH]2)c1)c1ccc(F)o1
4. O=C(Nc1ccc(Cl)c(-c2nc3ncc(C(F)(F)F)cc3[nH]2)c1)c1ccccc1Cl
5. Cc1cnc2nc(-c3cc(NC(=O)OCc4ccccc4)ccc3Cl)[nH]c2c1
6. COc1ccc(-c2cnc3nc(-c4cc(NC(=O)c5ccco5)ccc4Cl)[nH]c3c2)c(OC)n1
7. Cc1cnc2nc(-c3cc(NC(=O)OC4CCCC4)ccc3Cl)[nH]c2c1

(A)
1: 8.8; 2: 2.25; 3: 4.1; 4: 3.8; 5: 21.4; 6: 3.2; 7: 7.5

Lab note: each molecule below needs its EC50 filled in.
1. O=C(Nc1ccc(C(F)(F)F)cc1)Nc1ccc(F)c(-c2nc3ncc(Cl)cc3[nH]2)c1
2. Cc1cnc2nc(-c3cc(NC(=O)Cc4cccc(Cl)c4)ccc3Cl)[nH]c2c1
3. NC(=O)Nc1ccc(-c2cnc3nc(-c4cc(NC(=O)c5ccco5)ccc4Cl)[nH]c3c2)cc1

(A)
1. 19.6
2. 21.3
3. 15.3
